# experimentalTarget: p-hTMD1-p-CFTR (pig CFTR with human CFTR's TMD1) (Sus scrofa, UniProt Q6PQZ2, A115E/A228G/F12V/H39Q/I11V/I421T/I87F/K242R/K407E/L215I/L315F/L328I/M332I/N256S/N426D/P145L/S418N/S41P/S43V/S445N/T209A/V125I/V231I)
# assayMethodText: Inside-out patch-clamp inhibition of CFTR current by Inh-172
# assayConditions: p-hTMD1-p
property: pIC50
Entry type: numeric. Quantity: pIC50, the -log10 of concentration in molar units.

Input line: // lookup pIC50 for O=C(O)c1ccc(/C=C2\SC(=S)N(c3cccc(C(F)(F)F)c3)C2=O)cc1 [Inh-172, CFTRinh-172]
Output line: 5.66

---

# experimentalTarget: p-hTMD2-p-CFTR (pig CFTR with human CFTR's TMD2) (Sus scrofa, UniProt Q6PQZ2, A1172T/A789T/A900R/A913S/C878S/C883W/D1186N/D1223E/D816E/DEL1175-1175/F1181T/G899S/G926T/H1036Q/I1057V/I806L/K1013Q/K886G/K887N/K898H/L1018V/L1029M/L930M/L932F/M795V/N1178T/P890L/Q1176K/Q1198S/R1179K/R831K/R951H/S1010A/S1184Y/S783N/S889P/T1129R/T790A/T843A/V1006I/V1222T/V1228I/V798A/V838M/V854I/V870I/V983I)
# Construct: expressed in transfected cells; host or cells: CHO cells, pcDNA plasmid
# Sequence (Q6PQZ2 with tags, fused parts or gaps with the stated changes): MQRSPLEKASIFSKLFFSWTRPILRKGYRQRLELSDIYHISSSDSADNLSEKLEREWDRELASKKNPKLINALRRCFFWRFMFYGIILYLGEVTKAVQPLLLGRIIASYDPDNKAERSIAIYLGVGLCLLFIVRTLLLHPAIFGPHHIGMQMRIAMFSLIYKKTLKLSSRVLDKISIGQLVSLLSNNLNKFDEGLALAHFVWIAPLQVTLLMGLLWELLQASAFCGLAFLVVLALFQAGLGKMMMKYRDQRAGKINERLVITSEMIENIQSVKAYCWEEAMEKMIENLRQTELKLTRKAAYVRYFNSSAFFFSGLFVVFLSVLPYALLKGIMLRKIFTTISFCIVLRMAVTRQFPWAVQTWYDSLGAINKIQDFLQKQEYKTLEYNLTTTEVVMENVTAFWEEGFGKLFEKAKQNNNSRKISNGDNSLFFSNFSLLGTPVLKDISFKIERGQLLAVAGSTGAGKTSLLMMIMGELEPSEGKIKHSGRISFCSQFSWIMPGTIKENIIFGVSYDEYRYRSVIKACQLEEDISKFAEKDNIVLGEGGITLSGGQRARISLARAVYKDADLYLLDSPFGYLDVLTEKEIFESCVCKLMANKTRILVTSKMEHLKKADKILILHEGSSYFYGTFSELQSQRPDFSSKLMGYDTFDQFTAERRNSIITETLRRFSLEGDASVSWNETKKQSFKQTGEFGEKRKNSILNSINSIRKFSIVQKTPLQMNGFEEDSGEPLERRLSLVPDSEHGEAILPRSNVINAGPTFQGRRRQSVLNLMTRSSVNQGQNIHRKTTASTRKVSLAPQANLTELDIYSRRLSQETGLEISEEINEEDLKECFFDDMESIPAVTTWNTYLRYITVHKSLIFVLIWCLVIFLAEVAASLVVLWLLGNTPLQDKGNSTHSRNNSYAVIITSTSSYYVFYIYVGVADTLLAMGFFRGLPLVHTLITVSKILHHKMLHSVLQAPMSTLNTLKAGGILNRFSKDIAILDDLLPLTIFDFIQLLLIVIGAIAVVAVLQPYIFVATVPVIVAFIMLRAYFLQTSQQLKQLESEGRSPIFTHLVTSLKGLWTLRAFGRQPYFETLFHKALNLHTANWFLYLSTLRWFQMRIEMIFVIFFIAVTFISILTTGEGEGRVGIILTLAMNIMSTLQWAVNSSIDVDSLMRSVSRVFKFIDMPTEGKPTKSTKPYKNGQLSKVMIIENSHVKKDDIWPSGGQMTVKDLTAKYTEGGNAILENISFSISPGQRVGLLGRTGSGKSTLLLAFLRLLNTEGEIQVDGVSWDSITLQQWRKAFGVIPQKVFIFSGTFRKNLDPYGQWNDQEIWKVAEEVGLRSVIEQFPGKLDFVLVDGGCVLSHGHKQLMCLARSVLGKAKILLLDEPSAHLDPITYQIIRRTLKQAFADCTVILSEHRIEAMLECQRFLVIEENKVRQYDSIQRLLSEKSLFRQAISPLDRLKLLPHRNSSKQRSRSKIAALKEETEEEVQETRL
# assayMethodText: Inside-out patch-clamp inhibition of CFTR current by Inh-172
# Assay type: cell-based
# assayConditions: p-hTMD2-p
property: pIC50
Entry type: numeric. Quantity: pIC50, the -log10 of concentration in molar units.

Input line: // lookup pIC50 for O=C(O)c1ccc(/C=C2\SC(=S)N(c3cccc(C(F)(F)F)c3)C2=O)cc1 [Inh-172, CFTRinh-172]
Output line: 7.22

---

# experimentalTarget: h-pTMD2-h-CFTR (human CFTR with pig CFTR's TMD2) (Homo sapiens, UniProt P13569, A1009S/A789T/A797V/A842T/E1221D/E815D/F931L/G885K/H897K/H950R/I1005V/I1226V/I853V/I869V/I982V/INS1173D/K1174Q/K1177R/K830R/L805I/L889P/M1028L/M837V/M929L/N1184D/N782S/N886K/P888S/Q1012K/Q1035H/R1128T/R899A/S1196Q/S877C/S898G/S912A/T1171A/T1176N/T1179F/T1220V/T788A/T925G/V1017L/V1056I/V794M/W882C/Y1182S)
# Construct: expressed in transfected cells; host or cells: CHO cells, pcDNA plasmid
# Sequence (P13569 with tags, fused parts or gaps with the stated changes): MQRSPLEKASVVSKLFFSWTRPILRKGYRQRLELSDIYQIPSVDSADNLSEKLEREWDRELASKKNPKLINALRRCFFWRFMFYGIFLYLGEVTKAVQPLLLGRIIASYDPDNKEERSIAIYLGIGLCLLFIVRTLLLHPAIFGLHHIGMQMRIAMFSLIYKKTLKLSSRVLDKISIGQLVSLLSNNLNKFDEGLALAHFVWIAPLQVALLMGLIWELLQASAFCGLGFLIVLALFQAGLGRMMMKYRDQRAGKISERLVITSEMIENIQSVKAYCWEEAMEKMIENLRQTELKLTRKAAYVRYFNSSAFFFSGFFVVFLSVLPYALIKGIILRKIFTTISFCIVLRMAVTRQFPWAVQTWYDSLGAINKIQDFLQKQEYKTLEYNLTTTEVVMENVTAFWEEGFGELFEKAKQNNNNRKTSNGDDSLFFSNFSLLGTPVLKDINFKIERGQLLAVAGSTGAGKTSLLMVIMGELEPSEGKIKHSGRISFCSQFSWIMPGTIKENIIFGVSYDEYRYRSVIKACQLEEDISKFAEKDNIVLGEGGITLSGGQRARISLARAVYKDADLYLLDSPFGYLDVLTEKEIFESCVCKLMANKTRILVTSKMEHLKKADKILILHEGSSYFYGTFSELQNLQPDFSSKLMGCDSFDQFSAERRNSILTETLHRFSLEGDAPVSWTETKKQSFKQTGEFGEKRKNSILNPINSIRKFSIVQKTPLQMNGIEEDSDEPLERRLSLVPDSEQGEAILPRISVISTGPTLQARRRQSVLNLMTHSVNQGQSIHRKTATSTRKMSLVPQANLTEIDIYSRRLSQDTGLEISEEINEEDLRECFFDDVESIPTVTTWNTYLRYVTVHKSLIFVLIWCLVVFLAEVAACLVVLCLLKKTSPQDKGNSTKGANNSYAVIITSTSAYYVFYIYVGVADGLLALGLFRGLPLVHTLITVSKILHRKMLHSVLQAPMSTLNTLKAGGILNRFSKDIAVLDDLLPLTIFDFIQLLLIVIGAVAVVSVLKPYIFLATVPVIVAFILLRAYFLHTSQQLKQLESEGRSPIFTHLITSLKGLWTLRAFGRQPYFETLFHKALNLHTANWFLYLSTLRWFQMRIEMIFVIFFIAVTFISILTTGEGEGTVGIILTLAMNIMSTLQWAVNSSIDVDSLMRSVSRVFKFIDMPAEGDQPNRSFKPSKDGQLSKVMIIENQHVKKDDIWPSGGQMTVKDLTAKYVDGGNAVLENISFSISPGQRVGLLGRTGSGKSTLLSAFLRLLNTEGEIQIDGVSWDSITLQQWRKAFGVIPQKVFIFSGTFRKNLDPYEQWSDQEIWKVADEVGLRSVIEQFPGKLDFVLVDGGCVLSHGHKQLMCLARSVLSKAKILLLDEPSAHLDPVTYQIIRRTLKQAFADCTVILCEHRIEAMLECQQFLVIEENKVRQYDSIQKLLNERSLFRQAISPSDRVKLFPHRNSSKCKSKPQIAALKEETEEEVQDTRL
# assayMethodText: Inside-out patch-clamp inhibition of CFTR current by Inh-172
# Assay type: cell-based
# assayConditions: h-pTMD2-h
property: pIC50
Entry type: numeric. Quantity: pIC50, the -log10 of concentration in molar units.

Input line: // lookup pIC50 for O=C(O)c1ccc(/C=C2\SC(=S)N(c3cccc(C(F)(F)F)c3)C2=O)cc1
Output line: 5.40

---

# experimentalTarget: human WT-CFTR (Homo sapiens, UniProt P13569)
# Construct: the native wild-type CFTR construct without any deletion or mutation; expressed in transfected cells; host or cells: CHO cells, pcDNA plasmid
# Sequence (P13569 whole entry): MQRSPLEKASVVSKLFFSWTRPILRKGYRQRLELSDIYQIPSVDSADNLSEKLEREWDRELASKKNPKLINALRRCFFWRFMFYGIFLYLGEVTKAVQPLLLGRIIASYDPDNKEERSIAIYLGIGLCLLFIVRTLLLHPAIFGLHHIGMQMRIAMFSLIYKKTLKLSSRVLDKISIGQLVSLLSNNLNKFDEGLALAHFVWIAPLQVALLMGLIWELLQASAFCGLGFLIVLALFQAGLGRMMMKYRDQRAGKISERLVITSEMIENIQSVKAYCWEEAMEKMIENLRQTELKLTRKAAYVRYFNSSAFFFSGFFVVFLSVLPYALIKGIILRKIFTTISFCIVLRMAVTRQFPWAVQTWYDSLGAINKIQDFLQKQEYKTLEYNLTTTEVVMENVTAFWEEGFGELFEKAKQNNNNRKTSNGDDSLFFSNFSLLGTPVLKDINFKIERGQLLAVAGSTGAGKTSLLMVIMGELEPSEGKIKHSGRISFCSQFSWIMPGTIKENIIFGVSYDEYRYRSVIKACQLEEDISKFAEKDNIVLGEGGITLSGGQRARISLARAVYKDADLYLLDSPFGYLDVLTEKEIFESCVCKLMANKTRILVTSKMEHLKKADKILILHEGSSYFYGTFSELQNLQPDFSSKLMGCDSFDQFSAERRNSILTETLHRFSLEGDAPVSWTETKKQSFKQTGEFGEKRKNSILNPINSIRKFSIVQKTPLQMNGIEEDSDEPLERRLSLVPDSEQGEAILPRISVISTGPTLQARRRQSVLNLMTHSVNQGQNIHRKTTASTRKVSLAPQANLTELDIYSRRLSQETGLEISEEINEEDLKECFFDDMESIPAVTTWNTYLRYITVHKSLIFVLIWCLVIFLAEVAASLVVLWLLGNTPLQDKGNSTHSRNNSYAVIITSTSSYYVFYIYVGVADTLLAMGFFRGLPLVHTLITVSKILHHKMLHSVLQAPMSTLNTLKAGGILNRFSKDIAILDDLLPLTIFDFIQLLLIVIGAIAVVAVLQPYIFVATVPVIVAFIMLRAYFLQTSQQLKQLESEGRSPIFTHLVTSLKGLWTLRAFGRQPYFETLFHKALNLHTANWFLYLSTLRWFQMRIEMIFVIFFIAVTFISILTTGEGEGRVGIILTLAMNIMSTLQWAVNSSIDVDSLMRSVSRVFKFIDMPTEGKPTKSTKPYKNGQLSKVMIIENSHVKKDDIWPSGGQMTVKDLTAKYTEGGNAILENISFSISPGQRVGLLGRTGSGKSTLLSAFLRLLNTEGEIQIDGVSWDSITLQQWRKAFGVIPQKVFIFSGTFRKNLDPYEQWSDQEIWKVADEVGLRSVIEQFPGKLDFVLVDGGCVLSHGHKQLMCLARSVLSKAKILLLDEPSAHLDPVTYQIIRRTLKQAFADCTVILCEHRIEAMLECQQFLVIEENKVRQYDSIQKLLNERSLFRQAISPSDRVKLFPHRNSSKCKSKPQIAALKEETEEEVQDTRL
# assayMethodText: Inside-out patch-clamp inhibition of CFTR current by Inh-172
# Format: cell-based
# assayConditions: Human WT + 1 µM VX-770
property: pIC50
Entry type: numeric. Quantity: pIC50, the -log10 of concentration in molar units.

Input line: // lookup pIC50 for O=C(O)c1ccc(/C=C2\SC(=S)N(c3cccc(C(F)(F)F)c3)C2=O)cc1 [Inh-172, CFTRinh-172]
Output line: 6.38

---

# experimentalTarget: pig WT-CFTR (Sus scrofa)
# assayMethodText: Inside-out patch-clamp inhibition of CFTR current by Inh-172
# assayConditions: Pig WT
property: IC50 (µM)
Report only the number, with the unit µM understood.

Input line: // lookup IC50 for O=C(O)c1ccc(/C=C2\SC(=S)N(c3cccc(C(F)(F)F)c3)C2=O)cc1
Output line: 1.86

---

# experimentalTarget: K95A-CFTR (Homo sapiens, UniProt P13569, K95A)
# Construct: expressed in transfected cells; host or cells: CHO cells, pcDNA plasmid
# assayMethodText: Inside-out patch-clamp inhibition of CFTR current by Inh-172
# Format: cell-based
# assayConditions: K95A; earlier manuscript version, peer review file
property: IC50

Input line: // lookup IC50 for O=C(O)c1ccc(/C=C2\SC(=S)N(c3cccc(C(F)(F)F)c3)C2=O)cc1 [Inh-172, CFTRinh-172]
Output line: 852 nM

---

# experimentalTarget: T1142A-CFTR (Homo sapiens, UniProt P13569, T1142A)
# assayMethodText: Inside-out patch-clamp inhibition of CFTR current by Inh-172
# assayConditions: T1142A
property: pIC50
Entry type: numeric. Quantity: pIC50, the -log10 of concentration in molar units.

Input line: // lookup pIC50 for O=C(O)c1ccc(/C=C2\SC(=S)N(c3cccc(C(F)(F)F)c3)C2=O)cc1
Output line: 6.57

---

# experimentalTarget: p-hTM8-p-CFTR (pig CFTR, three TM8 amino acids replaced with human's) (Sus scrofa, UniProt Q6PQZ2, G926T/L930M/L932F)
# assayMethodText: Inside-out patch-clamp inhibition of CFTR current by Inh-172
# assayConditions: p-hTM8-p
property: IC50 (nM)
Report only the number, with the unit nM understood.

Input line: // lookup IC50 for O=C(O)c1ccc(/C=C2\SC(=S)N(c3cccc(C(F)(F)F)c3)C2=O)cc1
Output line: 720

---

# experimentalTarget: W1145L-CFTR (Homo sapiens, UniProt P13569, W1145L)
# Sequence (P13569 whole entry W1145L): as the sequence (P13569 whole entry) above, with W1145L counted along it
# assayMethodText: Inside-out patch-clamp inhibition of CFTR current by Inh-172
# assayConditions: W1145L
property: IC50
Number first, unit second: that is the form wanted.

Input line: # value lookup — system W1145L-CFTR (Homo sapiens, UniProt P13569, W1145L), readout IC50, item O=C(O)c1ccc(/C=C2\SC(=S)N(c3cccc(C(F)(F)F)c3)C2=O)cc1
Output line: 640 nM

---

# experimentalTarget: human WT-CFTR (Homo sapiens)
# Construct: the native wild-type CFTR construct without any deletion or mutation; expressed in transfected cells; host or cells: CHO cells, pcDNA plasmid
# assayMethodText: Inside-out patch-clamp inhibition of CFTR current by Inh-172
# Assay type: cell-based
# assayConditions: Human WT; inside-out patch, -30 mV, 2 mM ATP; Hill fit
property: pIC50
Entry type: numeric. Quantity: pIC50, the -log10 of concentration in molar units.

Input line: # value lookup — system human WT-CFTR (Homo sapiens), readout pIC50, item O=C(O)c1ccc(/C=C2\SC(=S)N(c3cccc(C(F)(F)F)c3)C2=O)cc1 [Inh-172, CFTRinh-172]
Output line: 7.10

---

# experimentalTarget: M348K-CFTR (Homo sapiens, UniProt P13569, M348K)
# Sequence (P13569 whole entry M348K): as the sequence (P13569 whole entry) above, with M348K counted along it
# assayMethodText: Inside-out patch-clamp inhibition of CFTR current by Inh-172
# assayConditions: M348K
property: pIC50
Entry type: numeric. Quantity: pIC50, the -log10 of concentration in molar units.

Input line: // lookup pIC50 for O=C(O)c1ccc(/C=C2\SC(=S)N(c3cccc(C(F)(F)F)c3)C2=O)cc1 [Inh-172, CFTRinh-172]
Output line: 6.28

---

# experimentalTarget: h-pTMD2-h-CFTR (human CFTR with pig CFTR's TMD2) (Homo sapiens, UniProt P13569, A1009S/A789T/A797V/A842T/E1221D/E815D/F931L/G885K/H897K/H950R/I1005V/I1226V/I853V/I869V/I982V/INS1173D/K1174Q/K1177R/K830R/L805I/L889P/M1028L/M837V/M929L/N1184D/N782S/N886K/P888S/Q1012K/Q1035H/R1128T/R899A/S1196Q/S877C/S898G/S912A/T1171A/T1176N/T1179F/T1220V/T788A/T925G/V1017L/V1056I/V794M/W882C/Y1182S)
# Construct: expressed in transfected cells; host or cells: CHO cells, pcDNA plasmid
# assayMethodText: Inside-out patch-clamp inhibition of CFTR current by Inh-172
# Type: cell-based
# assayConditions: human CFTR with pig TMD2; earlier manuscript version, peer review file
property: pIC50
Entry type: numeric. Quantity: pIC50, the -log10 of concentration in molar units.

Input line: // lookup pIC50 for O=C(O)c1ccc(/C=C2\SC(=S)N(c3cccc(C(F)(F)F)c3)C2=O)cc1
Output line: 5.40

meta.source: paper PMC11303713
